# Study System: T1, MusCD100 (cell surface) (mouse, UniProt O09126)
# T1 chain: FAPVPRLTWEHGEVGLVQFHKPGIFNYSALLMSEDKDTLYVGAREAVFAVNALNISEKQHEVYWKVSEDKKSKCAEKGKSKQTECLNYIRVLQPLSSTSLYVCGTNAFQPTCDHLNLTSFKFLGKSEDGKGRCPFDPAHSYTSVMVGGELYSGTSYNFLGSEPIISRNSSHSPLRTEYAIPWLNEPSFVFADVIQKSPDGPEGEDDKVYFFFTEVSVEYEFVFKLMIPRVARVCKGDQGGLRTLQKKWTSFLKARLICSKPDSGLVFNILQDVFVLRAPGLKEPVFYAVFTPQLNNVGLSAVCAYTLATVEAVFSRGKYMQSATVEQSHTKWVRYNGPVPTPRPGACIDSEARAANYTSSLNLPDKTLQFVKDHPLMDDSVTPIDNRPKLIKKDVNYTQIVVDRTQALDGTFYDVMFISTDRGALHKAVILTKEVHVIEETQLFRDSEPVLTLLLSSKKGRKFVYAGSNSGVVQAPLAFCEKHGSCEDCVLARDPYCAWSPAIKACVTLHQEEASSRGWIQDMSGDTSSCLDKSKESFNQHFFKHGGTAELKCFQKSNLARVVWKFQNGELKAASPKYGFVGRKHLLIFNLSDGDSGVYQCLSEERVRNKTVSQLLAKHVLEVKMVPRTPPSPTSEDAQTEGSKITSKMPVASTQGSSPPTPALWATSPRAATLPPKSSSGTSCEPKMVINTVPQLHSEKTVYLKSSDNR
# Procedure Text: FACS, HEK293
Measured EC50 values are reported for all entries that follow.

>  <Binder>
C-C171 (antibody, V domains shown) VH: QVQLQESGPGLVKPSGTLSLSCTVSGGSMSSNYLWSWVRQTPGKGLQWIGDIFHSGRTYYNPSLKRRVTISVDKSKNQFSLKLSSVTAADTAVYYCARQGWTTPFDYWGQGTPVTVSS VL: DIQLTQSPSSVSASVGDRVTITCRASQGISSWLAWYQQKPGKAPKLLIYAASSLQSGVPSRFSGSGSGTDFTLTISSLQPEDFATYYCLQDVYYPWTFGQGTTVEIK

>  <EC50 / µg/mL>
0.31

$$$$
>  <Binder>
C-B71 (antibody, V domains shown) VH: QVQLQESGPGLVKPSQTLSLTCTVSGGSISSGGYYWSWIRQHPGKGLEWIGYIYYSGSTYYNPSLKSRVTISVDTSKNQFSLKLSSVTAADTAVYYCAREGVAAAGIDYWGQGTPVTVSS VL: NIQLTQSPSSVSASVGDRVTITCRASQGISSWLAWYQQKPGKAPKLLISTASSVQSGVPTRFSASGSGTDFTLTISSLQPEDFATYYCQQGYRTPWTFGQGTKVEIK

>  <EC50 / µg/mL>
0.118

$$$$
>  <Binder>
H5 (antibody, V domains shown) VH: QLQLQESGPGLVKPPGTLSLTCAVSGGSISSSNWWSWVRQPPGKGLEWIGEIYHSGSTNYNPSLKSRVTISVDTSKNQFSLKLSSVTAADTAVYYCAVYDFWSGSGLDYWGQGTLVTVSS VL: SYVLTQPPSVSVSPGQTASITCSGDKLGDKFASWYQQKPGQSPVLVIYQDRKRPSRIPERFSGSNSGNTATLTITGTQTIDEADYYCQAWDSGTVIFGGGTKLTVL

>  <EC50 / µg/mL>
0.0606

$$$$
>  <Binder>
B13 (antibody, V domains shown) VH: QVQLQQWGAGLLKPSETLSLTCAISSGSFSGYYWTWIRQPPGKGLEWIGETNHNGFTTYNTSLKSRITISIDASKNQFYLNLSSVTAADTATYFCARGPAYYADALDGFDIWGQGTMVTVSS VL: QSVLTQPPSVSVSPGQTASITCSGDKLGDKYVSWYQQKPGQSPVLVIYQDNKRPSGIPERFSGSNSGNTATLTISGTQAMDEADYYCQAWDSSTKAYVFGAGTKVTVL

>  <EC50 / µg/mL>
0.0697

$$$$
>  <Binder>
A15 (antibody, V domains shown) VH: EVQLLESGGGLIQPGGSLRLSCAASGFTVSSNYMSWVRQAPGKGLEWVSVIYSGGSTYYADSVKGRFTISRDNSKNTLYLQMNSLRAEDTAVYYCAREVEGGMDVWGQGTTVTVSS VL: SYVLTQPPSVSVSPGQTASIICSGDKLGDKYVYWYQQKSGQSPVLVIYQDRKRPSGIPERFSGSNSGNTASLAISGLQSEDEADYYCAAWDDSLNGWVFGGGTKLTVL

>  <EC50 / µg/mL>
0.0548

$$$$
>  <Binder>
H74 (antibody, V domains shown) VH: QVQLQQWGAGLLKPSETLSLTCAVYGGSFSGYYWSWIRQPPGKGLEWIGEINHSGSTNYNPSLKSRVTISVDTSKNQFSLKLSSVTAADTAVYYCAGTRWLQFPLNYWGQGTLVTVSS VL: SYVLTQPPSVSVSPGQTASITCSGDKLGDKYAYWYQQKPGQSPVLVLYQDAKRPSGIPERFSGSNSGNTATLTISGTQAMDEADYYCQAWDSSTAGYVFGTGTKVTVL

>  <EC50 / µg/mL>
0.05

$$$$
>  <Binder>
H21 (antibody, V domains shown) VH: EVQLVQSGGGLVQPGRSLRLSCAASGFTFDDYAMHWVRQAPGKGLEWVSGISWNSGSIGYADSVKGRFTISRDNAKNSLYLQMNSLRAEDTALYYCAKDIGGSYFDYYYYGMDVWGQGTLVTVSS VL: EIVLTQSPATLSLSPGERATLSCRTSHNVNTYIAWYQQKPGQAPRLLFYDSSTRLPDTPARFSGSGSGTDFTLTISSLEPEDFAVYYCQQRTSWPLTFGGGTKVEIK

>  <EC50 / µg/mL>
0.0814

$$$$
>  <Binder>
H12 (antibody, V domains shown) VH: QVQLQESGPGLVKPSGTLSLTCAVSGGSISSSNWWSWVRQPPGKGLEWIGEIYHSGSTNYNPSLKSRVTISVDKSKNQFSLKLSSVTAADTAVYYCARFVSSGYLGAFDIWGQGTMVTVSS VL: QSVLTQPPSVSVSPGQTASITCSGDRLGDKYSYWYQQKPGQSPVLVIYQDSKRPSGIPERFSGSNSGNTATLTISGTQAMDEADYYCQVWDSSTAVFGGGTKLTVL

>  <EC50 / µg/mL>
0.0758

$$$$
>  <Binder>
H96 (antibody, V domains shown) VH: QVQLQQWGAGLLKPSETLSLTCAVYGGSFSGYYWSWIRQPPGKGLEWIGEINHSGSTNYNPSLKSRVTISVDTSKNQFSLKLSSVTAADTAVYYCARESNSYGYGTDYWGQGTLVTVSS VL: QSALTQPPSVSVSPGQTATITCSGDKLGEKYAFWYQQKPGQSPVLVIYQDNKRPSGIPERFTGSNSGNTATLTIFGTQTMDEADYYCQAWDSSTYVFGTGTKVTVL

>  <EC50 / µg/mL>
0.0504

$$$$
